Target: UniProt:F7X6I3
Test: GSALDH activity measurements
Format: biochemical
Settings: Ki, Uncompetitive model; P5C variable substrate, NAD+ fixed at 0.2 mM
quantity-kind: Ki (mM)

{"chemical-string": "O=C(O)[C@H]1CCCN1", "quantity-kind": "Ki", "readout-value": 4.5}
{"chemical-string": "O=C(O)[C@@H]1CCCN1", "quantity-kind": "Ki", "readout-value": 19}

###

Target: GSALDH activity of SmPutA (Sinorhizobium meliloti)
Test: GSALDH activity measurements
Format: biochemical
Settings: Ki, Competitive model; P5C variable substrate, NAD+ fixed at 0.2 mM
Reported Ki values for a set of compounds
quantity-kind: Ki (mM)

{"compound": "O=C(O)[C@@H]1C[C@@H](O)CN1 [THLP, trans-4-hydroxy-L-proline]", "readout-value": 7}
{"compound": "O=C(O)[C@H]1C[C@@H](O)CN1 [CHDP, cis-4-hydroxy-D-proline]", "readout-value": 8}
{"compound": "O=C(O)[C@@H]1CCCN1", "readout-value": 11}
{"compound": "O=C(O)[C@H]1CCCN1", "readout-value": 1.5}
{"compound": "O=C(O)[C@H]1C[C@H](O)CN1 [THDP, trans-4-hydroxy-D-proline]", "readout-value": 4.5}
